method: pKa determination by RP-HPLC
Assay type: physicochemical
condition.description: from retention factor vs pH of mobile phase, recalculated for water medium
property.measured: pKa

* CCCCOC(=O)Nc1ccc(C(=O)OCC(O)CNCCOc2ccccc2OC)cc1.Cl (centres unmarked) [Compound 19d] | 8.73
* COC(=O)Nc1ccc(C(=O)OCC(O)CNCCOc2ccc(F)cc2)cc1.Cl (centres unmarked) [Compound 23a] | 8.04
* CCOC(=O)Nc1ccc(C(=O)OCC(O)CNCCOc2ccccc2OC)cc1.Cl (centres unmarked) [Compound 19b] | 8.9
* COC(=O)Nc1ccc(C(=O)OCC(O)CNCCOc2ccc(OC)cc2)cc1.Cl (centres unmarked) [Compound 20a] | 8.25
* CCOC(=O)Nc1ccc(C(=O)OCC(O)CNCCOc2ccc(F)cc2)cc1.Cl (centres unmarked) [Compound 23b] | 8.09
* COC(=O)Nc1ccc(C(=O)OCC(O)CNCCOc2ccccc2F)cc1.Cl (centres unmarked) [Compound 22a] | 7.98
* COC(=O)Nc1ccc(C(=O)OCC(O)CNCCOc2c(OC)cccc2OC)cc1.Cl (centres unmarked) [Compound 21a] | 9.14
* CCCOC(=O)Nc1ccc(C(=O)OCC(O)CNCCOc2ccc(OC)cc2)cc1.Cl (centres unmarked) [Compound 20c] | 7.99
